molecular target: bb2121 (C11D5.3); assay: SPR
PROPERTY NAME: Kd (nM)
Answer with a number only, understood to be in nM.

Asked: What value of Kd has been recorded for this entry: soluble BCMA (B-cell maturation antigen) (receptor) MLQMAGQCSQNEYFDSLLHACIPCQLRCSSNTPPLTCQRYCNASVTNSVKGTNA
Given back: 0.328
